Answer each item with its documented pIC50.
Target: SHP-2 enzyme (Met1-Leu525) (Homo sapiens, UniProt Q06124)
Construct: synthetized by Origene, Met1-Leu525, cat #TP750155
Sequence (Q06124 1-525): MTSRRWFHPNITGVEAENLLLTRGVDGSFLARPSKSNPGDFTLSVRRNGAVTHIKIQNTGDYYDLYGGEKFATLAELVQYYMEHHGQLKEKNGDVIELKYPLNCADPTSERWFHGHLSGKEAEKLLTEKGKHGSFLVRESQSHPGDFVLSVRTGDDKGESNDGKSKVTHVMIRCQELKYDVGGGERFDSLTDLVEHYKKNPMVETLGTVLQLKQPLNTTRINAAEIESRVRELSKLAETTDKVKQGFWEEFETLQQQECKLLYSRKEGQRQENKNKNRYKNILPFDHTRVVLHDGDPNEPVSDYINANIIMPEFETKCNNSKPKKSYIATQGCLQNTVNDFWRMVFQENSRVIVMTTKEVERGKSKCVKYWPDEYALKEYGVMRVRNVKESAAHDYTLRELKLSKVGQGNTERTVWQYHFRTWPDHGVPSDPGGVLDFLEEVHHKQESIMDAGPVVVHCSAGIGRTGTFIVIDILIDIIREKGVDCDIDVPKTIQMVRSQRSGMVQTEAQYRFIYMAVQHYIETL
Assay: SHP2 inhibition enzymatic assay (DiFMUP substrate, IRS1 peptide activation)
Conditions: SHP2 wt; activated by 500 nM IRS1 peptide; 75 μM DiFMUP substrate
Method: SHP2 Inhibition Enzymatic Assay Assay volume of 20 μL/well was assembled in 384 well black polystyrene low-binding microplates (Greiner), using the following buffer: 60 mM HEPES pH 7.2, 75 mM NaCl, 75 mM KCl, 1 mM EDTA pH 8, 0.05% tween-20, 5 mM DTT. […] Briefly, DMSO serially diluted testing compounds were transferred to the bottom of the assay plate. […] The fluorescence was detected by a microplate reader (Envision, PerkinElmer) according to the DiFMUP excitation and emission wavelength. […]
pIC50: −log10 of the molar value.

Study these solved cases before continuing.
| Smiles Structure | pIC50 |
| --- | --- |
| FC(F)(F)c1ncccc1Sc1cnc2[nH]c(Nc3ccc4n[nH]cc4c3)nc2n1 | 5.52 to 6.30 |
| Nc1nccc(Sc2cnc3[nH]c(N4CCC5(CC4)Cc4ccc(O)cc4[C@H]5N)nc3n2)c1Cl | > 6.30 |
| Cn1ncc2nccc(Sc3cnc4[nH]c(N5CCC6(CC5)Cc5ccccc5[C@H]6N)nc4n3)c21 | > 6.30 |
| COc1cc(Sc2cnc3[nH]c(N4CCC5(CC4)Cc4ccccc4[C@H]5N)nc3n2)c(Cl)cn1 | 5.52 to 6.30 |
| FC(F)(F)c1ncccc1Sc1cnc2[nH]c(N3CCC34CCNCC4)nc2n1 | 5.52 to 6.30 |

Can you give me pIC50 for all of these, one by one?
1. FC(F)(F)c1ncccc1Sc1cnc2[nH]c(N3CC4(CCCNC4)C3)nc2n1
2. N[C@@H]1c2ccccc2OC12CCN(c1nc3nc(Sc4cccnc4C(F)(F)F)cnc3[nH]1)CC2
3. CC1(N)CCN(c2nc3nc(Sc4cccc5c4COC5)cnc3[nH]2)CC1

5.52 to 6.30
> 6.30
> 6.30

These measurements were taken from patent US20220289753A1.
